Values from paper PMC8704707

For each of the compounds below, state its MIC.
Tested on: Candida parapsilosis ATCC 22019
Test: microbe, parasite or virus in culture
Format: cell-based
Conditions: Lodderomyces parapsilosis, ATCC22019, 48 h, read-out: MIC CP 48 h

Short answer for "N=C(N)NNCc1cc(I)cc(I)c1O" : MIC was > 125 µM

Short answer for "[H]/N=C(\N)NN=Cc1ccc([N+](=O)[O-])s1" : MIC was > 500 µM

Short answer for "N=C(N/N=C/c1cc(I)cc(I)c1O)N/N=C/c1cc(I)cc(I)c1O" : MIC was > 500 µM

---

Test system: Staphylococcus aureus ATCC 29213
Assay: Antibacterial microdilution broth method (EUCAST)
Type: cell-based
Conditions: ATCC29213, 24 h, read-out: MIC SA 24 h
OUTCOME_MEASURE: MIC (µM)
Kindly answer with a numeric value in µM, unit omitted.

Short answer for Cl.N=C(NN)N/N=C/c1cc(I)cc(I)c1O [Compound 2e] : MIC was 62.5

Short answer for [H]/N=C(\N)NN=Cc1ccc([N+](=O)[O-])s1 [Compound 1o] : MIC was 125

Short answer for [H]/N=C(\N)NN=Cc1cc(Cl)cc(Cl)c1O [Compound 1j] : MIC was 250

Short answer for [H]/N=C(\N)NN=Cc1ccccc1 [Compound 1a] : MIC was 500

Short answer for [H]/N=C(\N)NN=Cc1cc(Cl)ccc1O [Compound 1g] : MIC was 250

Short answer for [H]/N=C(\N)NN=Cc1ccc([N+](=O)[O-])o1 [Compound 1n] : MIC was 62.5

Short answer for NC(=S)N/N=C/c1ccc([N+](=O)[O-])o1 [Compound 3e] : MIC was 62.5

Short answer for [H]/N=C(\N)NN=Cc1cc(I)cc(I)c1 [Compound 2c] : MIC was 15.6

Short answer for [H]/N=C(\N)NN=Cc1cc(Cl)cc(I)c1O [Compound 1l] : MIC was 500

Short answer for [H]/N=C(\N)NN=Cc1cc(I)ccc1O [Compound 1i] : MIC was 125

Short answer for NC(=O)N/N=C/c1ccc([N+](=O)[O-])o1 [Compound 3d] : MIC was 62.5

---

Tested on: Candida albicans ATCC 24443
Test: microbe, parasite or virus in culture
Assay type: cell-based
Conditions: ATCC24443, 24 h, read-out: MIC CA 24 h
OUTCOME_MEASURE: MIC

Short answer for "[H]/N=C(\N)NN=Cc1cc(Cl)cc(I)c1O" : MIC was > 500 µM

Short answer for "[H]/N=C(\N)NN=Cc1ccc([N+](=O)[O-])s1" : MIC was > 500 µM

Short answer for "N=C(N)NNCc1cc(I)cc(I)c1O" : MIC was > 125 µM

Short answer for "N=C(N/N=C/c1cc(I)cc(I)c1O)N/N=C/c1cc(I)cc(I)c1O" : MIC was > 500 µM

---

Test system: Klebsiella pneumoniae ATCC 10031
Conditions: 24 h incubation
For each of the molecules below, state its MIC KP 24 h.
Kindly answer with a numeric value in µM, unit omitted.

Short answer for "CC(=O)Oc1c(I)cc(I)cc1/C=N/NC(=N)N" : MIC KP 24 h was 250

Short answer for "[H]/N=C(\N)NN=Cc1ccc([N+](=O)[O-])s1" : MIC KP 24 h was 125

Short answer for "[H]/N=C(\N)NN=Cc1cc(I)cc(I)c1" : MIC KP 24 h was 62.5

Short answer for "[H]/N=C(\N)NN=Cc1ccc([N+](=O)[O-])o1" : MIC KP 24 h was 250

Short answer for "NC(=S)N/N=C/c1ccc([N+](=O)[O-])o1" : MIC KP 24 h was 62.5

Short answer for "[H]/N=C(\N)NN=Cc1cc(Cl)cc(I)c1O" : MIC KP 24 h was 250

Short answer for "[H]/N=C(\N)NN=Cc1cc(Cl)ccc1O" : MIC KP 24 h was 500

Short answer for "[H]/N=C(\N)NN=Cc1cc(I)c(O)c(I)c1" : MIC KP 24 h was 250

---

System: Staphylococcus epidermidis ATCC 12228
Test: Antibacterial microdilution broth method (EUCAST)
Format: cell-based
Conditions: ATCC12228, 24 h, read-out: MIC SE 24 h
Counter-ions that a name gives are not always drawn.
OUTCOME_MEASURE: MIC

Short answer for "[H]/N=C(\N)NN=Cc1ccc([N+](=O)[O-])o1" : MIC was 62.5 µM

Short answer for "NC(=S)N/N=C/c1ccc([N+](=O)[O-])o1" : MIC was 31.2 µM

Short answer for "[H]/N=C(\N)NN=Cc1cc(I)cc(I)c1" : MIC was 7.8 µM

Short answer for "[H]/N=C(\N)NN=Cc1cc(Cl)cc(Br)c1O" : MIC was 125 µM

Short answer for "[H]/N=C(\N)NN=Cc1cc(Cl)ccc1O" : MIC was 62.5 µM

Short answer for "[H]/N=C(\N)NN=Cc1cc(I)ccc1O" : MIC was 250 µM

Short answer for CCN1CCN(C(=O)N[C@@H](C(=O)N[C@@H]2C(=O)N3[C@@H]2SC(C)(C)[C@@H]3C(=O)O)c2ccccc2)C(=O)C1=O [PIP, piperacillin sodium salt, reference compound] : MIC was > 59.3 µM

Short answer for "CC(=O)Oc1c(I)cc(I)cc1/C=N/NC(=N)N" : MIC was 250 µM

Short answer for "[H]/N=C(\N)NN=Cc1ccccc1" : MIC was 250 µM

Short answer for "[H]/N=C(\N)NN=Cc1cc(Cl)cc(I)c1O" : MIC was 250 µM

Short answer for "NC(=O)N/N=C/c1ccc([N+](=O)[O-])o1" : MIC was 31.2 µM

Short answer for "[H]/N=C(\N)NN=Cc1c(O)cccc1Cl" : MIC was 125 µM

Short answer for "Cl.N=C(NN)N/N=C/c1cc(I)cc(I)c1O" : MIC was 31.2 µM

Short answer for "[H]/N=C(\N)NN=Cc1cc(I)c(O)c(I)c1" : MIC was 250 µM

Short answer for "[H]/N=C(\N)NN=Cc1cc(Cl)cc(Cl)c1O" : MIC was 250 µM

Short answer for "NC(=O)N/N=C/c1cc(I)cc(I)c1O" : MIC was 125 µM

---

Tested on: Acinetobacter baumannii ATCC 19606
Test: Antibacterial microdilution broth method (EUCAST)
Type: cell-based
Details: ATCC19606, 48 h, read-out: MIC ACI 48 h
Where a name gives a salt, the structure may show the parent alone.
For each of the compounds below, state its MIC.

Short answer for "Cl.N=C(NN)N/N=C/c1cc(I)cc(I)c1O" : MIC was > 125 µM

Short answer for "[H]/N=C(\N)NN=Cc1cc(Cl)cc(Br)c1O" : MIC was > 500 µM

Short answer for "NC(=O)N/N=C/c1ccc([N+](=O)[O-])o1" : MIC was > 500 µM

Short answer for "[H]/N=C(\N)NN=Cc1cc(I)c(O)c(I)c1" : MIC was > 500 µM

Short answer for "NC(=O)N/N=C/c1cc(I)cc(I)c1O" : MIC was > 500 µM

Short answer for "NC(=S)N/N=C/c1ccc([N+](=O)[O-])o1" : MIC was > 500 µM

Short answer for CCN1CCN(C(=O)N[C@@H](C(=O)N[C@@H]2C(=O)N3[C@@H]2SC(C)(C)[C@@H]3C(=O)O)c2ccccc2)C(=O)C1=O [PIP, piperacillin sodium salt, reference compound] : MIC was > 59.3 µM

Short answer for "NC(=S)N/N=C/c1cc(I)cc(I)c1O" : MIC was > 500 µM

Short answer for "[H]/N=C(\N)NN=Cc1ccccc1" : MIC was > 500 µM

---

Test system: Klebsiella pneumoniae ATCC 10031
Conditions: 24 h incubation
Where a name gives a salt, the structure may show the parent alone.
OUTCOME_MEASURE: MIC KP 24 h

Short answer for "Cl.N=C(NN)N/N=C/c1cc(I)cc(I)c1O" : MIC KP 24 h was >125 µM

Short answer for CCN1CCN(C(=O)N[C@@H](C(=O)N[C@@H]2C(=O)N3[C@@H]2SC(C)(C)[C@@H]3C(=O)O)c2ccccc2)C(=O)C1=O [PIP, piperacillin sodium salt, reference compound] : MIC KP 24 h was >59.31 µM

Short answer for "[H]/N=C(\N)NN=Cc1ccccc1" : MIC KP 24 h was >500 µM

Short answer for "NC(=O)N/N=C/c1cc(I)cc(I)c1O" : MIC KP 24 h was >500 µM

Short answer for "NC(=S)N/N=C/c1cc(I)cc(I)c1O" : MIC KP 24 h was >500 µM

Short answer for "[H]/N=C(\N)NN=Cc1c(O)cccc1Cl" : MIC KP 24 h was >500 µM
